Target: HLA-B*27:05
Assay: IEDB peptide-MHC binding, purified MHC/competitive/fluorescence; filed as Kd, often an IC50 or EC50 that approximates it; bounds were set here for any values at or beyond the usual limits of such assays
Conditions: source organism: Yersinia pestis Nepal516
Measured property: Kd (µM)
Give the value in µM but do not write µM after it.

Measured Kd of "RAMRMVYYL" : 0.157

---

Target: HLA-B*40:01
Assay: IEDB peptide-MHC binding, purified MHC/competitive/radioactivity; filed as Kd, often an IC50 or EC50 that approximates it; bounds were set here for any values at or beyond the usual limits of such assays
Details: source organism: Mammarenavirus machupoense
Measured property: Kd (µM)
Give the value in µM but do not write µM after it.

Measured Kd of "KDMPGGYCL" : 17.7

Hey, just so you know, these numbers are from the Immune Epitope Database (IEDB).
